- EXPERIMENT: Quantitative High-Throughput drug screen in 47 multiple myeloma cell lines against the NCATS MIPE library collection: Delta47_JCRB cell viability assay (AID 1918925; further: nearly all actives have a fitted effect of over 45% in size)
- COND: Delta47 myeloma viability, CellTiter-Glo ATP, 48 h; series mostly up to 45.8 µM
Records with an inconclusive call do not appear. The source made the active and inactive calls. The call rests on the fitted dose curve; in most records, active means well fitted cell-killing curve with a large enough effect; inconclusive means small, poorly fitted or top-dose-only effect, or effect the other way; inactive means no such curve, though single readings can be large or run the other way.
Log the outcome using a class from active, inactive

Incoming: Would you mind telling me which call this test gave COc1ccc(-c2ccc3c(N4CCOCC4)nc(N4C[C@@H](C)O[C@@H](C)C4)nc3n2)cc1CO ?
Outgoing: active

Incoming: Would you mind telling me which call this test gave Oc1cccc(-c2nc(N3CCOCC3)c3oc4ncccc4c3n2)c1 ?
Outgoing: active

Incoming: Would you mind telling me which call this test gave N[C@@H]1CONC1=O ?
Outgoing: inactive

Incoming: Would you mind telling me which call this test gave CCC(C)n1ncn(-c2ccc(N3CCN(c4ccc(OC[C@H]5CO[C@](Cn6cncn6)(c6ccc(Cl)cc6Cl)O5)cc4)CC3)cc2)c1=O (stereo not given in full) ?
Outgoing: inactive

Incoming: Would you mind telling me which call this test gave CC(c1cc2ccccc2s1)N(O)C(N)=O (stereo not given) ?
Outgoing: inactive

Incoming: Would you mind telling me which call this test gave OC(CN1CCC(Cc2ccc(F)cc2)CC1)c1ccc(Cl)cc1 (stereo not given) ?
Outgoing: inactive

Incoming: Would you mind telling me which call this test gave Cc1ccccc1C(C(=O)NC1CCCC1)N(C(=O)Cn1cnc2ccccc21)c1cccc(F)c1 (stereo not given) ?
Outgoing: active

Incoming: Would you mind telling me which call this test gave C[C@@H]1CN(Cc2ccc(F)cc2)[C@@H](C)CN1C(=O)c1cc2c(C(=O)C(=O)N(C)C)cn(C)c2cc1Cl ?
Outgoing: active

Incoming: Would you mind telling me which call this test gave COc1cc2nccc(Oc3ccc(NC(=O)NC4CC4)c(Cl)c3)c2cc1C(N)=O ?
Outgoing: active

Incoming: Would you mind telling me which call this test gave O=NN(CCCl)C(=O)NCCCl ?
Outgoing: inactive

---

- EXPERIMENT: Quantitative High-Throughput drug screen in 47 multiple myeloma cell lines against the NCATS MIPE library collection: PCM6_Riken cell viability assay (AID 1919870); further: nearly all actives have a fitted effect of over 30% in size
- COND: CellTiter-Glo ATP, 48 h; series mostly up to 45.8 µM
- Source text: PI: Beverly A. Mock Ph.D. Laboratory of Cancer Biology and Genetics, Center for Cancer Research, National Cancer Institute, National Institute of Health, Bethesda, Maryland […] 5; Detector; 425V; Luminescence; Viewlux PerkinElmer. […] 1. […] Briefly, the corresponding myeloma cell lines were screened in 1,536-well plates with 500 cells, 5-uL per well for inhibition of cell viability (assessed by measuring ATP levels with CellTiterGlo). […]
Records with an inconclusive call do not appear. Active and inactive are the calls of the source. Calls follow the shape of the dose curve; as a rule, active = well fitted cell-killing curve with a large enough effect; inconclusive = small, poorly fitted or top-dose-only effect, or effect the other way; inactive = no such curve, though single readings can be large or run the other way.
Log the outcome using a class from 1 (active), -1 (inactive)

Incoming: Would you mind telling me which call this test gave Cc1cc(-c2ccc(CC(=O)Nc3ccc(-c4cccnc4)cc3)cc2)ccn1 ?
Outgoing: 1

Incoming: Would you mind telling me which call this test gave NNCCc1ccccc1 ?
Outgoing: -1

Incoming: Would you mind telling me which call this test gave O=c1ncn2nc(Sc3ccc(F)cc3F)ccc2c1-c1c(Cl)cccc1Cl ?
Outgoing: 1

Incoming: Would you mind telling me which call this test gave N=c1nc(N2CCCCC2)cc(N)n1O ?
Outgoing: 1

Incoming: Would you mind telling me which call this test gave Cc1c(CCOc2ccc(C(=O)O)cc2)c2cc(Cl)ccc2n1C(c1ccccc1)c1ccccc1 ?
Outgoing: -1

Incoming: Would you mind telling me which call this test gave O=c1[nH]cnc2[nH]ncc12 ?
Outgoing: -1

Incoming: Would you mind telling me which call this test gave OCCn1cc(-c2cnc3nnn(Cc4ccc5ncccc5c4)c3n2)cn1 ?
Outgoing: -1

Incoming: Would you mind telling me which call this test gave OC(CCN1CCCCC1)(c1ccccc1)C1CC2C=CC1C2 (stereo unspecified) ?
Outgoing: -1

Incoming: Would you mind telling me which call this test gave CN1CCN(CCCN2c3ccccc3Sc3ccc(C(F)(F)F)cc32)CC1 ?
Outgoing: 1

Incoming: Would you mind telling me which call this test gave CCCS(=O)(=O)Nc1ccc(F)c(C(=O)c2c[nH]c3ncc(Cl)cc23)c1F ?
Outgoing: 1

Incoming: Would you mind telling me which call this test gave O=c1n(CCCN2CCN(c3cccc(Cl)c3)CC2)nc2ccccn12 ?
Outgoing: -1

---

- EXPERIMENT: Quantitative High-Throughput drug screen in 47 multiple myeloma cell lines against the NCATS MIPE library collection: VP6_DJ cell viability assay (AID 1919867); further: nearly all actives have a fitted effect of over 40% in size
- COND: ATP luminescence, 48 h; series mostly up to 45.8 µM
Inconclusive results are not listed. Active and inactive are the calls of the source. The call rests on the fitted dose curve; in most records, active means well fitted cell-killing curve with a large enough effect; inconclusive means small, poorly fitted or top-dose-only effect, or effect the other way; inactive means no such curve, though single readings can be large or run the other way.
Log the outcome using a class from Yes (active), No (inactive)

Incoming: Would you mind telling me which call this test gave CCn1c(-c2nonc2N)nc2cnc(Oc3cccc(NC(=O)c4ccc(OCCN5CCOCC5)cc4)c3)cc21 ?
Outgoing: Yes

Incoming: Would you mind telling me which call this test gave CC(C)OC(=O)C1=CN(C(=O)c2ccc(F)c(F)c2)CC(C)(C)c2c1[nH]c1ccccc21 ?
Outgoing: Yes

Incoming: Would you mind telling me which call this test gave COc1cccc2cc(-c3nc(C4CCC(C(=O)O)CC4)n4ncnc(N)c34)[nH]c12 (centres undefined) ?
Outgoing: Yes

Incoming: Would you mind telling me which call this test gave Clc1cccc(Cl)c1NC1=NCCN1 ?
Outgoing: Yes

Incoming: Would you mind telling me which call this test gave Cc1cc([C@@H](C)Nc2ccccc2C(=O)O)c2nc(N3CCOCC3)cc(=O)n2c1 ?
Outgoing: Yes

Incoming: Would you mind telling me which call this test gave COCC(=O)NCC=Cc1ccc2ncnc(Nc3ccc(Oc4ccc(C)nc4)c(C)c3)c2c1 ?
Outgoing: Yes

Incoming: Would you mind telling me which call this test gave C[C@H](NC(=O)Cc1cc(F)cc(F)c1)C(=O)N[C@@H]1C(=O)N(C)c2ccccc2-c2ccccc21 ?
Outgoing: No

Incoming: Would you mind telling me which call this test gave Cc1cnc(Nc2ccc(OCCN3CCCC3)cc2)nc1Nc1cccc(S(=O)(=O)NC(C)(C)C)c1 ?
Outgoing: Yes

Incoming: Would you mind telling me which call this test gave O=c1ncn2nc(Sc3ccc(F)cc3F)ccc2c1-c1c(Cl)cccc1Cl ?
Outgoing: Yes

---

- EXPERIMENT: qHTS drug screen for cell cycle checkpoint inhibitors in PARPi-resistant BRCA-mutant ovarian cancer cell lines. (AID 1963452)
- COND: PEO1/OlaR viability, CellTiter-Glo luminescence, 96 h; measured here: PEO4 Z-AUC; stronger effect = lower value
EXPERIMENTAL_READOUT: Z-AUC
No unit in the answer, only the number.

Incoming: May I ask what Z-AUC has been recorded for Nc1cccc(S(=O)(=O)N2CCCN(S(=O)(=O)c3ccc4c(c3)OCCO4)CC2)c1 ?
Outgoing: 0.787

Incoming: May I ask what Z-AUC has been recorded for OC(CCN1CCCCC1)(c1ccccc1)C1CC2C=CC1C2 (stereo not given) ?
Outgoing: -0.607

Incoming: May I ask what Z-AUC has been recorded for CC(C)(N)C(=O)N[C@H](COCc1ccccc1)C(=O)N1CCC2(CC1)CN(S(C)(=O)=O)c1ccccc12 ?
Outgoing: 1.52

Incoming: May I ask what Z-AUC has been recorded for Cc1c(CCOc2ccc(C(=O)O)cc2)c2cc(Cl)ccc2n1C(c1ccccc1)c1ccccc1 ?
Outgoing: 0.896

Incoming: May I ask what Z-AUC has been recorded for NC(=O)C1CCCc2c1[nH]c1ccc(Cl)cc21 (stereo not given) ?
Outgoing: -0.557

Incoming: May I ask what Z-AUC has been recorded for NCCCC(N)(C(=O)O)C(F)F (stereo not given) ?
Outgoing: 1.05

Incoming: May I ask what Z-AUC has been recorded for C[C@H](NC(=O)Cc1cc(F)cc(F)c1)C(=O)N[C@@H]1C(=O)N(C)c2ccccc2-c2ccccc21 ?
Outgoing: -0.563

Incoming: May I ask what Z-AUC has been recorded for CCn1c(-c2nonc2N)nc2cnc(Oc3cccc(NC(=O)c4ccc(OCCN5CCOCC5)cc4)c3)cc21 ?
Outgoing: 0.912

Incoming: May I ask what Z-AUC has been recorded for Cn1cnc([N+](=O)[O-])c1Sc1ncnc2nc[nH]c12 ?
Outgoing: -1.41

Incoming: May I ask what Z-AUC has been recorded for NC[C@H](O)c1ccc(O)c(O)c1 ?
Outgoing: -0.505

---

- EXPERIMENT: Quantitative High-Throughput drug screen in 47 multiple myeloma cell lines against the NCATS MIPE library collection: OPM2_DSMZ cell viability assay (AID 1919872); further: nearly all actives have a fitted effect of over 30% in size
- COND: OPM2 myeloma viability, CellTiter-Glo ATP luminescence, 48 h; series mostly up to 45.8 µM
Records with an inconclusive call do not appear. Activity calls are given as the source filed them. Calls follow the shape of the dose curve; as a rule, active = well fitted cell-killing curve with a large enough effect; inconclusive = small, poorly fitted or top-dose-only effect, or effect the other way; inactive = no such curve, though single readings can be large or run the other way.
Log the outcome using a class from 1 (yes) (active), 0 (no) (inactive)

Incoming: Would you mind telling me which call this test gave Nc1nc2[nH]cc(CCc3ccc(C(=O)N[C@@H](CCC(=O)O)C(=O)O)cc3)c2c(=O)[nH]1 ?
Outgoing: 0 (no)

Incoming: Would you mind telling me which call this test gave CN[C@@H](C)C(=O)N[C@H]1CCCC[C@H]2CC[C@@H](C(=O)N[C@@H](c3ccccc3)c3cn(CCCCc4ccc(CCCCn5cc([C@@H](NC(=O)[C@@H]6CC[C@@H]7CCCC[C@H](NC(=O)[C@H](C)NC)C(=O)N76)c6ccccc6)nn5)cc4)nn3)N2C1=O ?
Outgoing: 0 (no)

Incoming: Would you mind telling me which call this test gave Cc1ccccc1C(OCCN(C)C)c1ccccc1 (stereo not drawn) ?
Outgoing: 0 (no)

Incoming: Would you mind telling me which call this test gave COc1ccc(-c2ccc3c(N4CCOCC4)nc(N4C[C@@H](C)O[C@@H](C)C4)nc3n2)cc1CO ?
Outgoing: 1 (yes)

Incoming: Would you mind telling me which call this test gave O=C(Nc1nc2ccccc2n1CCN1CCOCC1)c1cccc([N+](=O)[O-])c1 ?
Outgoing: 0 (no)

Incoming: Would you mind telling me which call this test gave COc1ccc(CC2=NN3C([C@@H](CCc4ccccc4)[C@@H](C)O)=NC(C)C3C(=O)N2)cc1OC (stereo partly drawn) ?
Outgoing: 0 (no)

Incoming: Would you mind telling me which call this test gave C1COC(NC(C2CC2)C2CC2)=N1 ?
Outgoing: 0 (no)

Incoming: Would you mind telling me which call this test gave COc1cc2c(cc1OC)CN(CCc1ccc(NC(=O)c3cccc4c(=O)c5cccc(OC)c5[nH]c34)cc1)CC2 ?
Outgoing: 0 (no)

Source listed as PubChem BioAssay (NCATS).
